Reference source for all entries: ChEMBL document CHEMBL4049408

- experimental.system: ATP-dependent translocase ABCB1 (Homo sapiens)
- Sequence (P08183 whole entry): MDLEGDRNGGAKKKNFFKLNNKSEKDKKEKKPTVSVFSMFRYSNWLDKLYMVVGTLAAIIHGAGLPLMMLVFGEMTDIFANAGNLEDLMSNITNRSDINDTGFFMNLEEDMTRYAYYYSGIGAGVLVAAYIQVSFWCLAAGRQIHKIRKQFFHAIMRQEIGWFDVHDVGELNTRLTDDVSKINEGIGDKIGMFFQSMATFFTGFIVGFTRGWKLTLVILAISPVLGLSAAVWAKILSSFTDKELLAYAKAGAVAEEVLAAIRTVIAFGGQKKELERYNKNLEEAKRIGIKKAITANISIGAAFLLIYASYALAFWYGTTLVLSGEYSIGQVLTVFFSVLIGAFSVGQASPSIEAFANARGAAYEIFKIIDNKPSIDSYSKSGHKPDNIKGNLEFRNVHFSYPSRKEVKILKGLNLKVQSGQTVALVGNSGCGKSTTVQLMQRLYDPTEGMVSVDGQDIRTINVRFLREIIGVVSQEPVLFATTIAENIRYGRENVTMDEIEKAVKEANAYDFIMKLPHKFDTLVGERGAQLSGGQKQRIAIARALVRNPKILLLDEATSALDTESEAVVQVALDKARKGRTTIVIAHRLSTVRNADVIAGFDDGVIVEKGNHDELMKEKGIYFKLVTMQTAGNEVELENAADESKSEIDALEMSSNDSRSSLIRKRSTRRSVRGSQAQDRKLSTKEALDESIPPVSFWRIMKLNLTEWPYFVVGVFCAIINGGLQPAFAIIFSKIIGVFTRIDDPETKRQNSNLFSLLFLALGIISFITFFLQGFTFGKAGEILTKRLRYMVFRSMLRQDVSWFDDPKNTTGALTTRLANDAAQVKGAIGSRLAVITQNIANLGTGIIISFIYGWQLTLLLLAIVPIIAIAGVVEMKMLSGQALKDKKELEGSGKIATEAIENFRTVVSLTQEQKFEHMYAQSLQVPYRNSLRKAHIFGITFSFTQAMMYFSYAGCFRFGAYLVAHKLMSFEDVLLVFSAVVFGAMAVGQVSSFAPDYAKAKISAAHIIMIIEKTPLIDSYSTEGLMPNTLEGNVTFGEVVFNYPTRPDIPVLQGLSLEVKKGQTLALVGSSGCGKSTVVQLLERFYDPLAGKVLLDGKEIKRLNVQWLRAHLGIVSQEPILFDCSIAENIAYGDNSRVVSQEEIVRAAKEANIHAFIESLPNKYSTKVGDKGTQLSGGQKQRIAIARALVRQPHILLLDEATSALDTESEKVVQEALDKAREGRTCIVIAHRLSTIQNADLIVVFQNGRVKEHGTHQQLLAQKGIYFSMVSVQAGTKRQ
- assay.protocol: Inhibition of ABCB1 in human K562/A02 cells assessed as potentiation of adriamycin-mediated cytotoxicity by measuring reduction in ADR IC50 at 5 uM after 48 hrs by MTT assay relative to control
- Assay type: cell-based
property.name: fold change (FC)
API note: the answer field is a bare number with no unit suffix.

# annotated cases, reported fold change (FC) shown
COc1ccc(CCNC(=O)c2cccnc2NCc2ccncc2)cc1OC | 16.6
COc1cccc(-c2nnc(NC(=O)c3cccnc3NCc3ccncc3)s2)c1 | 4.6
COc1ccc(CN(C)C(=O)c2cccnc2NCc2ccncc2)cc1OC | 9.58
CN1CCN(c2ccc(NC(=O)c3cccnc3NCc3ccncc3)cc2)CC1 | 4.93
CN1CCN(CCc2ccc(NC(=O)c3cccnc3NCc3ccncc3)cc2)CC1 | 2.04
O=C(Nc1ccc2c(c1)Cc1ccccc1-2)c1cccnc1NCc1ccncc1 | 13.65
COc1cccc(NC(=O)c2cccnc2NCc2ccncc2)c1 | 3.76
O=C(NCc1ccncc1)c1cccnc1NCc1ccncc1 | 7.92

Ask: Can you look up the measured fold change (FC) of O=C(Nc1nc2ccccc2[nH]1)c1cccnc1NCc1ccncc1 for me?
Reply: 1.69

Ask: Can you look up the measured fold change (FC) of O=C(Nc1ccc(F)c(Cl)c1)c1cccnc1NCc1ccncc1 for me?
Reply: 6.6

Ask: Can you look up the measured fold change (FC) of O=C(NC(c1ccccc1)c1ccccc1)c1cccnc1NCc1ccncc1 for me?
Reply: 3.94
